Origin of the recorded values: patent US11535650

# Lookup of reported Avg. IC50, human hemolysis assay (complete human sera) keyed by entry
# systemTested: human C5 protein (human, UniProt P01031 19-673; P01031 678-1676)
# methodDescription: cell-based or functional assay
Positions of bridges follow the written chain, without caps; N, C: chain ends. Non-standard residues stand in square brackets, D forms with d. Primed or numbered codes have the meaning given here. mXylyl(3) = bridging moiety between the two residues given in brackets; Trp(7-aza) = N[C@@H](Cc1c[nH]c2ncccc12)C(=O)O; mXylyl(4) = bridging moiety between residues; Trp(1-Me) = Cn1cc(C[C@H](N)C(=O)O)c2ccccc21; pXylyl = bridging moiety between residues; Phg = N[C@H](C(=O)O)c1ccccc1; Tle = CC(C)(C)[C@H](N)C(=O)O; NMeS = CN[C@@H](CO)C(=O)O; hCys = N[C@@H](CCS)C(=O)O; Nva = CCC[C@H](N)C(=O)O; Aib = CC(C)(N)C(=O)O

Ac-[Nva]CYEN[Tle]Y[Trp(7-aza)]EYP[Phg]P-NH2 (SMILES CCC[C@H](NC(C)=O)C(=O)N[C@@H](CS)C(=O)N[C@@H](Cc1ccc(O)cc1)C(=O)N[C@@H](CCC(=O)O)C(=O)N[C@@H](CC(N)=O)C(=O)N[C@H](C(=O)N[C@@H](Cc1ccc(O)cc1)C(=O)N[C@@H](Cc1c[nH]c2ncccc12)C(=O)N[C@@H](CCC(=O)O)C(=O)N[C@@H](Cc1ccc(O)cc1)C(=O)N1CCC[C@H]1C(=O)N[C@H](C(=O)N1CCC[C@H]1C(N)=O)c1ccccc1)C(C)(C)C) [R3003] :: 13.9 nM
Ac-[Nva]C[Phg]T[Trp(7-aza)]NY[NMeS]AC[Nva]-NH2 (linker 2-10 via mXylyl(4)) [R3099] :: > 100000 nM
Ac-[Nva]C[Phg][Aib][Trp(7-aza)]EY[NMeS]HC[Nva]-NH2 (linker 2-10 via mXylyl(3)) [R3096] :: > 50000 nM
Ac-[Nva][hCys][Phg]T[Trp(7-aza)]EY[NMeS]HC[Nva]-NH2 (linker 2-10 via pXylyl) [R3104] :: > 2000 nM
Ac-[Nva]T[Phg]C[Trp(7-aza)]EY[NMeS]AC[Nva]-NH2 (linker 4-10 via mXylyl(4)) [R3111] :: > 5000 nM

Challenge: Which Avg. IC50, human hemolysis assay (complete human sera) value belongs to Ac-YEN[Tle]Y[Trp(1-Me)]EYP[Phg][Nva]-NH2 (SMILES CCC[C@H](NC(=O)[C@@H](NC(=O)[C@@H]1CCCN1C(=O)[C@H](Cc1ccc(O)cc1)NC(=O)[C@H](CCC(=O)O)NC(=O)[C@H](Cc1cn(C)c2ccccc12)NC(=O)[C@H](Cc1ccc(O)cc1)NC(=O)[C@@H](NC(=O)[C@H](CC(N)=O)NC(=O)[C@H](CCC(=O)O)NC(=O)[C@H](Cc1ccc(O)cc1)NC(C)=O)C(C)(C)C)c1ccccc1)C(N)=O) [R3110] ?
Response given: 2940 nM

Challenge: What about this binder? Ac-[Nva][hCys][Phg]T[Trp(7-aza)]EY[NMeS]H[hCys][Nva]-NH2 (linker 2-10 via pXylyl) [R3108]
Response given: > 75000 nM
